assayed.target: human FXR (Homo sapiens)
protocol: FXR luciferase reporter gene assay (FXRE-luc) in HepG2 cells, antagonistic mode
Assay type: cell-based
condition.label: with 1 µM OCA, Figure 3B
test.readout: capacity to antagonize OCA-stimulated FXR activation (in words)

[
  {
    "molecule": "C=C[C@@]1(O)C[C@@H]2C[C@H](O)CC[C@]2(C)C2CC[C@@]3(C)C(CC[C@@H]3[C@H](C)CCC(=O)O)C21 (some centres unmarked)",
    "result": "maintained"
  },
  {
    "molecule": "C=CC[C@@]1(O)C[C@@H]2C[C@H](O)CC[C@]2(C)C2CC[C@@]3(C)C(CC[C@@H]3[C@H](C)CCC(=O)O)C21 (some centres unmarked)",
    "result": "maintained"
  },
  {
    "molecule": "C=CCCC[C@@]1(O)C[C@@H]2C[C@H](O)CC[C@]2(C)C2CC[C@@]3(C)C(CC[C@@H]3[C@H](C)CCC(=O)O)C21 (some centres unmarked)",
    "result": "maintained"
  }
]

----------
Test system: Huh7
protocol: MTS viability assay
Assay type: cell-based, human
condition.label: Homo sapiens, Huh-7; Huh7, 24 h, MTS; read-out: IC50 (µM), cell viability
Procedure: The potential cytotoxicity of 7-alkylated chenodeoxycholic acid derivatives were assessed in different human (HepG2, HepaRG and Huh7) and murine (AML12) hepatocyte-derived cell lines. For this purpose, hepatic cells were treated at increasing concentration for 24h and analyzed by MTS viability assay. Table S2. […]
test.readout: IC50

Report IC50 under test system Huh7 for C[C@H](CCC(=O)O)[C@H]1CCC2C3C(CC[C@@]21C)[C@@]1(C)CC[C@@H](O)C[C@H]1C[C@]3(O)C1CC1 (stereo partly shown) .
> 200 µM

Report IC50 on Huh7 for this entry: C[C@H](CCC(=O)O)[C@H]1CCC2C3C(CC[C@@]21C)[C@@]1(C)CC[C@@H](O)C[C@H]1C[C@@]3(C)O (stereo partly shown)
> 200 µM

Write down measured IC50 (Huh7) for this compound. C#C[C@@]1(O)C[C@@H]2C[C@H](O)CC[C@]2(C)C2CC[C@@]3(C)C(CC[C@@H]3[C@H](C)CCC(=O)O)C21 (stereo partly shown)
> 200 µM

Determine reported IC50 for C=CCCC[C@@]1(O)C[C@@H]2C[C@H](O)CC[C@]2(C)C2CC[C@@]3(C)C(CC[C@@H]3[C@H](C)CCC(=O)O)C21 (stereo partly shown) ; test system: Huh7.
34 µM

Tell me its IC50 on Huh7: C=CC[C@@]1(O)C[C@@H]2C[C@H](O)CC[C@]2(C)C2CC[C@@]3(C)C(CC[C@@H]3[C@H](C)CCC(=O)O)C21 (stereo partly shown)
> 100 µM

Recall the reported IC50 of CCC[C@@]1(O)C[C@@H]2C[C@H](O)CC[C@]2(C)C2CC[C@@]3(C)C(CC[C@@H]3[C@H](C)CCC(=O)O)C21 (stereo partly shown) on Huh7 and write it down.
> 100 µM

Send back Huh7 IC50 of CCCCCCCCC[C@@]1(O)C[C@@H]2C[C@H](O)CC[C@]2(C)C2CC[C@@]3(C)C(CC[C@@H]3[C@H](C)CCC(=O)O)C21 (stereo partly shown) only.
21.8 µM

----------
assayed.target: human FXR (Homo sapiens, UniProt Q96RI1)
Sequence (Q96RI1 whole entry): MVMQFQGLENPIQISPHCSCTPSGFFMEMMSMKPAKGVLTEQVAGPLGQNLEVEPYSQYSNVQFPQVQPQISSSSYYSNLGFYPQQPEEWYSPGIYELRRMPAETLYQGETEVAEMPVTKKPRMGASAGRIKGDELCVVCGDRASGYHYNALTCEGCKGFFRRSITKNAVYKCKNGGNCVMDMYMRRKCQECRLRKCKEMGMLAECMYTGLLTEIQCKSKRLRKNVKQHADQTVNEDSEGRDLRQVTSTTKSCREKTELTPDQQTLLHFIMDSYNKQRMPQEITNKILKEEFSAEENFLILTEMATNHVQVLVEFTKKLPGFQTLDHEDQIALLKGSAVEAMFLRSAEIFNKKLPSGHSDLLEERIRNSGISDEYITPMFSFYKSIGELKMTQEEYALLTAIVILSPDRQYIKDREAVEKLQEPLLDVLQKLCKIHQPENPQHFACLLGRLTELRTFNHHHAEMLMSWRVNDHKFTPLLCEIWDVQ
Sequence (P19793 whole entry partner): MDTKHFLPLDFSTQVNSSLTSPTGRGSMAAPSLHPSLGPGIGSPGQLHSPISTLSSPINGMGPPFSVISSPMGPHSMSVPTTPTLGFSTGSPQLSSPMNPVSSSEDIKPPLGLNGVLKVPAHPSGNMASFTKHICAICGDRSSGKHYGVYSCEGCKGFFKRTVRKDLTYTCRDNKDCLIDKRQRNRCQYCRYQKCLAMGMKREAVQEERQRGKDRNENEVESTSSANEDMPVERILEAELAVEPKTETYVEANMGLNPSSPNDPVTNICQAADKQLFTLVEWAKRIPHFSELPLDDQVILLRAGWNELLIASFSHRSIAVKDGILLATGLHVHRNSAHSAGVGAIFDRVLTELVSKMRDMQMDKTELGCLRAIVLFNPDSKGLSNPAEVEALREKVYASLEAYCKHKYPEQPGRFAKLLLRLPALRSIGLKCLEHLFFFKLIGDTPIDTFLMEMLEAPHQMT
protocol: FXR luciferase reporter gene assay (FXRE-luc) in HepG2 cells, antagonistic mode
Type: cell-based
condition.label: HepG2; tested compound 40 µM, CDCA 20 µM; * = significant effect on cellular viability; read-out: relative response (%) to the model FXR ligand activation (set to be 100%), CDCA 20 µM
Please respond with reported remaining activity at 40 µM for every item in the list.
Your answer is read as %, so omit the unit and give the number.

Report measured remaining activity at 40 µM; entry is C#C[C@@]1(O)C[C@@H]2C[C@H](O)CC[C@]2(C)C2CC[C@@]3(C)C(CC[C@@H]3[C@H](C)CCC(=O)O)C21 (some centres unmarked)
115

Provide only the value of recorded remaining activity at 40 µM for CC[C@@]1(O)C[C@@H]2C[C@H](O)CC[C@]2(C)C2CC[C@@]3(C)C(CC[C@@H]3[C@H](C)CCC(=O)O)C21 (some centres unmarked)
67.1

Retrieve remaining activity at 40 µM measured for C[C@H](CCC(=O)O)[C@H]1CCC2C3C(CC[C@@]21C)[C@@]1(C)CC[C@@H](O)C[C@H]1C[C@@]3(C)O (some centres unmarked) and print it.
112

Supply recorded remaining activity at 40 µM for C=CC[C@@]1(O)C[C@@H]2C[C@H](O)CC[C@]2(C)C2CC[C@@]3(C)C(CC[C@@H]3[C@H](C)CCC(=O)O)C21 (some centres unmarked) here.
107

Look up and state reported remaining activity at 40 µM for CCC[C@@]1(O)C[C@@H]2C[C@H](O)CC[C@]2(C)C2CC[C@@]3(C)C(CC[C@@H]3[C@H](C)CCC(=O)O)C21 (some centres unmarked)
96.4

Input CC(CCC(=O)O)C1CCC2C3C(CCC12C)C1(C)CCC(O)CC1CC3(O)C(C)C (centres unmarked) , output reported remaining activity at 40 µM.
47.6

Annotate the compound C[C@H](CCC(=O)O)[C@H]1CCC2C3C(CC[C@@]21C)[C@@]1(C)CC[C@@H](O)C[C@H]1C[C@]3(O)C1CC1 (some centres unmarked) with its measured remaining activity at 40 µM.
60

Report measured remaining activity at 40 µM; entry is C=C[C@@]1(O)C[C@@H]2C[C@H](O)CC[C@]2(C)C2CC[C@@]3(C)C(CC[C@@H]3[C@H](C)CCC(=O)O)C21 (some centres unmarked)
80.2
